Experiment: Selectivity ratio of IC50 for equine serum BChE to IC50 for AChE (unknown origin)
Category key, based on recorded Ratio IC50: low (below 1), intermediate (1 to below 3), high (3 or more)

Before answering, review these 3 worked examples.
{"Compound": "C=CC(=O)N1C/C(=C\\c2ccccc2C)C(=O)[C@@]2(C1)[C@H](c1ccccc1C)CN(C)[C@]21C(=O)Nc2ccccc21 (racemic)", "Category Label": "low"}
{"Compound": "Cc1ccccc1/C=C1\\CN(C(=O)[C@@H]2CCN(C)[C@]23C(=O)Nc2ccccc23)C[C@]2(C1=O)[C@H](c1ccccc1C)CN(C)[C@]21C(=O)Nc2ccccc21 (racemic)", "Category Label": "intermediate"}
{"Compound": "C=CC(=O)N1C/C(=C\\c2ccc(F)cc2)C(=O)[C@@]2(C1)[C@H](c1ccc(F)cc1)CN(C)[C@]21C(=O)Nc2ccccc21 (racemic)", "Category Label": "low"}

Record CN1CC[C@@H](C(=O)N2C/C(=C\c3ccc(Cl)cc3Cl)C(=O)[C@@]3(C2)[C@H](c2ccc(Cl)cc2Cl)CN(C)[C@]32C(=O)Nc3ccccc32)[C@@]12C(=O)Nc1ccccc12 (racemic) — which class?
high

Record CN1CC[C@@H](C(=O)N2C/C(=C\c3ccccc3Cl)C(=O)[C@@]3(C2)[C@H](c2ccccc2Cl)CN(C)[C@]32C(=O)Nc3ccccc32)[C@@]12C(=O)Nc1ccccc12 (racemic) — which class?
intermediate

Record CN1CC[C@@H](C(=O)N2C/C(=C\c3cccc4ccccc34)C(=O)[C@@]3(C2)[C@H](c2cccc4ccccc24)CN(C)[C@]32C(=O)Nc3ccccc32)[C@@]12C(=O)Nc1ccccc12 (racemic) — which class?
high

Record C=CC(=O)N1C/C(=C\c2ccc(Cl)cc2)C(=O)[C@@]2(C1)[C@H](c1ccc(Cl)cc1)CN(C)[C@]21C(=O)Nc2ccccc21 (racemic) — which class?
low

Record CN1CC[C@@H](C(=O)N2C/C(=C\c3ccccc3)C(=O)[C@@]3(C2)[C@H](c2ccccc2)CN(C)[C@]32C(=O)Nc3ccccc32)[C@@]12C(=O)Nc1ccccc12 (racemic) — which class?
high

Record C=CC(=O)N1C/C(=C\c2ccccc2OC)C(=O)[C@@]2(C1)[C@H](c1ccccc1OC)CN(C)[C@]21C(=O)Nc2ccccc21 (racemic) — which class?
intermediate

Record CN1CC[C@@H](C(=O)N2C/C(=C\c3ccc(F)cc3)C(=O)[C@@]3(C2)[C@H](c2ccc(F)cc2)CN(C)[C@]32C(=O)Nc3ccccc32)[C@@]12C(=O)Nc1ccccc12 (racemic) — which class?
high

Record C=CC(=O)N1C/C(=C\c2ccc(Cl)cc2Cl)C(=O)[C@@]2(C1)[C@H](c1ccc(Cl)cc1Cl)CN(C)[C@]21C(=O)Nc2ccccc21 (racemic) — which class?
low

====

Kindly state Ratio IC50 for each of the entries shown.
Assay: Selectivity index, ratio of IC50 for AChE (unknown origin) to IC50 for equine serum BChE
Give bare numbers.

In the examples that follow, each entry is paired with its recorded Ratio IC50.
{"Compound": "C=CC(=O)N1C/C(=C\\c2ccccc2F)C(=O)[C@@]2(C1)[C@H](c1ccccc1F)CN(C)[C@]21C(=O)Nc2ccccc21 (racemic)", "Ratio IC50": 2.14}
{"Compound": "CN1CC[C@@H](C(=O)N2C/C(=C\\c3cccc4ccccc34)C(=O)[C@@]3(C2)[C@H](c2cccc4ccccc24)CN(C)[C@]32C(=O)Nc3ccccc32)[C@@]12C(=O)Nc1ccccc12 (racemic)", "Ratio IC50": 0.26}

Next compound, please.
Consider the compound C=CC(=O)N1C/C(=C\c2ccc(Cl)cc2Cl)C(=O)[C@@]2(C1)[C@H](c1ccc(Cl)cc1Cl)CN(C)[C@]21C(=O)Nc2ccccc21 (racemic) . State its measured Ratio IC50.
1.15
